System: HEK-293T
METHOD SUMMARY: Multiplex assay against HEK293T
Assay type: toxicity, cell-based
STUDY CONDITIONS: human, 24 h, 1 µM, compound concentration 1 uM, replicate 1
Classification field: enter true for Total Cell Count values not below 300, false for values below it.

>>> qualitative_label("Cl.O=C(c1ccc(Nc2nccc(-c3cc4ccccc4s3)n2)cc1)N1CCC(N2CCCC2)CC1")
"true"
>>> qualitative_label("O=C(Cc1ccc(-c2ccc(OCCN3CCOCC3)cc2)cn1)NCc1ccccc1")
"false"
>>> qualitative_label("CCc1cccc(CC)c1NC(=O)c1nn(C)c2c1CCc1cnc(Nc3ccc(N4CCN(C)CC4)cc3OC)nc1-2")
"true"
>>> qualitative_label("Cc1ccc(C(=O)Nc2cccc(C(F)(F)F)c2)cc1Nc1nc(-c2cccnc2)nc2c1cnn2C")
"true"
>>> qualitative_label("CCOC(=O)c1c(C)[nH]c2ccc3c(c12)CN1CCc2cc(OC)ccc2C1O3 (stereo not drawn)")
"false"
>>> qualitative_label("CCOc1cc2ncc(C#N)c(Nc3ccc(OCc4ccccn4)c(Cl)c3)c2cc1NC(=O)/C=C/CN(C)C")
"false"
>>> qualitative_label("CCN1CCN(c2ccc(Nc3cc(N(C)C(=O)Nc4c(Cl)c(OC)cc(OC)c4Cl)ncn3)cc2)CC1")
"true"
>>> qualitative_label("COc1cc(N2CCN(C)CC2)ccc1Nc1ncc2c(n1)N(C)c1ccccc1C(=O)N2C")
"true"
>>> qualitative_label("CNC(=O)c1ccc(Nc2nc(OC3CCCC3)c3c(-c4ccc5nc(C)oc5c4)c[nH]c3n2)c(OC)c1")
"true"
>>> qualitative_label("NC(=O)c1cccc(-c2cc(Nc3ccc(OC(F)(F)F)cc3)ncn2)c1")
"true"

Does COc1ccc(-c2ccc3c(N4CCOCC4)nc(N4C[C@@H](C)O[C@@H](C)C4)nc3n2)cc1CO have a reported Total Cell Count of at least 300?
true

Does O=C(Nc1cccnn1)N1CCC(=Cc2cccc(Oc3ccc(C(F)(F)F)cn3)c2)CC1 have a reported Total Cell Count of at least 300?
true

Does O=C(Nc1ccc(-c2ccnc(Nc3ccc(N4CCOCC4)cc3)n2)cc1)[C@@H]1CCCN1 have a reported Total Cell Count of at least 300?
true

Does CCn1cc(-c2ccnc3[nH]c(-c4cccc(CN(C)C)c4)cc23)c(-c2ccc(NC(=O)N(C)C)cc2)n1 have a reported Total Cell Count of at least 300?
true

Does O=C1NC(=O)C(c2cnc3ccccn23)=C1c1cn2c3c(cc(F)cc13)CN(C(=O)N1CCCCC1)CC2 have a reported Total Cell Count of at least 300?
false

###

System: Fibroblast
METHOD SUMMARY: Multiplex assay against human fibroblast
Type: toxicity, cell-based
STUDY CONDITIONS: 24 h, 10 µM, compound concentration 10 uM, replicate 2
READOUT: Population Pyknosed Nuclei (%)
Report the figure in % without appending any unit label.

Item NC(=O)c1cccc(-c2cc(Nc3ccc(OC(F)(F)F)cc3)ncn2)c1 has what recorded Population Pyknosed Nuclei (%)?
10

Item O=C(Nc1ccc(-n2nc(-c3cccnc3)cc2C(F)(F)F)cn1)c1ccc(-c2ccccc2)c(F)c1 has what recorded Population Pyknosed Nuclei (%)?
3

Item CCc1cccc(CC)c1NC(=O)c1nn(C)c2c1CCc1cnc(Nc3ccc(C(=O)NC4CCN(C)CC4)cc3OC(F)(F)F)nc1-2 has what recorded Population Pyknosed Nuclei (%)?
20

Item CCc1cccc(CC)c1NC(=O)c1nn(C)c2c1CCc1cnc(Nc3ccc(N4CCN(C)CC4)cc3OC)nc1-2 has what recorded Population Pyknosed Nuclei (%)?
3

Item CN1C2CCC1CC(OC(c1ccc(F)cc1)c1ccc(F)cc1)C2.Cl (stereo unspecified) has what recorded Population Pyknosed Nuclei (%)?
19

Item CCn1cc(-c2ccnc3[nH]c(-c4cccc(CN(C)C)c4)cc23)c(-c2ccc(NC(=O)N(C)C)cc2)n1 has what recorded Population Pyknosed Nuclei (%)?
14

Item CNC(=O)c1ccc(Nc2nc(OC3CCCC3)c3c(-c4ccc5nc(C)oc5c4)c[nH]c3n2)c(OC)c1 has what recorded Population Pyknosed Nuclei (%)?
13
